Please respond with reported Oat, Wild plant response rating for every item in the list.
# Tested on: oat, wild (wild oat, Avena fatua)
# EXPERIMENT_DESCRIPTION: Test C greenhouse herbicide test, postemergence
# Assay type: in vivo
# SETUP_CONDITIONS: Postemergence, 31 g ai/ha; 0 to 100 scale (0 no effect, 100 complete control)
Give bare numbers.

Solved cases (4 shown):
[
  {
    "SMILES_REPRESENTATION": "Cc1ccc2ccccc2c1-c1c(O)c(Br)nn(C)c1=O",
    "Oat, Wild plant response rating": 85
  },
  {
    "SMILES_REPRESENTATION": "Cc1ccc2ccccc2c1-c1c(O)c(I)nn(C)c1=O",
    "Oat, Wild plant response rating": 60
  },
  {
    "SMILES_REPRESENTATION": "CCc1oc2ccc(C)cc2c1-c1c(O)c(C)nn(C)c1=O",
    "Oat, Wild plant response rating": 5
  },
  {
    "SMILES_REPRESENTATION": "Cc1nn(C)c(=O)c(-c2ccc(F)c3ccccc23)c1O",
    "Oat, Wild plant response rating": 55
  }
]

Shift focus to the following entry.
IN: oat, wild (wild oat, Avena fatua) / Oat, Wild plant response rating / "Cc1nn(C)c(=O)c(-c2ccc(Br)c3ccccc23)c1O" : value?
OUT: 40

The origin of these recorded values is patent US10597388B2.
